Listing of entries alongside the reported Human GLP-1 R activity (cAMP release), % activity with respect to control.
# STUDY_SYSTEM: Human GLP-1 receptor (Homo sapiens)
# Construct: The full-length cDNA was cloned in pcDNA3.1(+); expressed in transfected cells
# Sequence (P43220 24-463): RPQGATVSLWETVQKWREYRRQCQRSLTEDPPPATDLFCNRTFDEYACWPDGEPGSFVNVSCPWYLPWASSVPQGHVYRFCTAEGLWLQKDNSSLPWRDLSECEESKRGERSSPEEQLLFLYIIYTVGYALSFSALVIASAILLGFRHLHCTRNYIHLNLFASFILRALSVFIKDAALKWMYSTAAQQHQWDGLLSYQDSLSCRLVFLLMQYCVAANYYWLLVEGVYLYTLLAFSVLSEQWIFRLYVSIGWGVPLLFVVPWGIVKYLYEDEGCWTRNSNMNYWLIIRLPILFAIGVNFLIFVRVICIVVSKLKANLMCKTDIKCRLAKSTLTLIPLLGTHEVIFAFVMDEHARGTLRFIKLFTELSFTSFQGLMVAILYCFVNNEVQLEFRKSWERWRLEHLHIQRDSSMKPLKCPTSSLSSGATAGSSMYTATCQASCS
# ASSAY_PROTOCOL: In vitro Human GLP-1 R agonist activity (cyclic AMP determination) in CHO/human GLP1R cells
# Type: cell-based
# EXPERIMENTAL_CONTEXT: 10 μM test compound
Please give a number only; it is taken to be in %.

CCc1cc(OC)ccc1-c1ccc(CC(NC(=O)[C@H](CC(=O)O)NC(=O)[C@H](CO)NC(=O)[C@@H](NC(=O)[C@H](Cc2ccccc2)NC(=O)[C@@H](NC(=O)CNC(=O)[C@H](CCC(N)=O)NC(=O)C(C)(C)NC(=O)[C@@H](N)Cc2c[nH]cn2)[C@@H](C)O)[C@@H](C)O)C(=O)NC(CCCc2ccc(OC)cc2Cl)C(N)=O)cc1 (single isomer, unassigned) : 99
CCc1cc(OC)ccc1-c1ccc(CC(NC(=O)[C@H](CC(=O)O)NC(=O)[C@H](CO)NC(=O)[C@@H](NC(=O)C(C)(Cc2ccccc2F)NC(=O)[C@@H](NC(=O)CNC(=O)C(CCC#N)NC(=O)C(C)(C)NC(=O)[C@@H](N)Cc2c[nH]cn2)[C@H](C)O)[C@@H](C)O)C(=O)NC(CCCc2ccccc2)C(N)=O)cc1 (single isomer, unassigned) : 97
CCc1cc(OC)ccc1-c1ccc(CC(NC(=O)[C@H](CC(=O)O)NC(=O)[C@H](CO)NC(=O)[C@@H](NC(=O)C(C)(Cc2ccccc2F)NC(=O)[C@@H](NC(=O)CNC(=O)C(CCC#N)NC(=O)C(C)(C)NC(=O)[C@@H](N)Cc2c[nH]cn2)[C@H](C)O)[C@H](C)O)C(=O)NC(CCCc2ccccc2F)C(N)=O)cc1 (single isomer, unassigned) : 99
CCc1cc(OC)ccc1-c1ccc(CC(NC(=O)[C@H](CC(=O)O)NC(=O)[C@H](CO)NC(=O)[C@@H](NC(=O)[C@H](Cc2ccccc2)NC(=O)[C@@H](NC(=O)CNC(=O)C(CCC#N)NC(=O)C(C)(C)NC(=O)[C@@H](N)Cc2c[nH]cn2)[C@@H](C)O)[C@@H](C)O)C(=O)NC(CCCc2ccccc2Cl)C(N)=O)cc1 (single isomer, unassigned) : 99
CCc1cc(OC)ccc1-c1ccc(CC(NC(=O)[C@H](CC(=O)O)NC(=O)[C@H](CO)NC(=O)[C@@H](NC(=O)[C@H](Cc2ccccc2)NC(=O)[C@@H](NC(=O)CNC(=O)[C@H](CCC(N)=O)NC(=O)[C@H](CO)NC(=O)[C@@H](N)Cc2c[nH]cn2)[C@@H](C)O)[C@@H](C)O)C(=O)NC(CCCc2ccccc2Cl)C(N)=O)cc1 (single isomer, unassigned) : 99

Continue with the molecule presented below.
Quick one: Human GLP-1 R activity (cAMP release), % activity with respect to control of CCc1cc(OC)ccc1-c1ccc(CC(NC(=O)[C@H](CC(=O)O)NC(=O)[C@H](CO)NC(=O)[C@@H](NC(=O)[C@H](Cc2ccccc2)NC(=O)[C@@H](NC(=O)CNC(=O)C(CCC#N)NC(=O)C(C)(C)NC(=O)[C@@H](N)Cc2c[nH]cn2)[C@@H](C)O)[C@@H](C)O)C(=O)NC(CCCc2ccccc2F)C(N)=O)cc1 (single isomer, unassigned) ?
98

====

# ASSAY_PROTOCOL: Stability in liver microsomes
# Format: in vitro ADME
# EXPERIMENTAL_CONTEXT: 2 μM peptidomimetic, human liver microsomes, 37° C.
Non-standard residues stand in square brackets, D forms with d. Residues, ends and D or L forms follow the SMILES beside them. ξ: configuration not given here. ξNMeBip(2'-Et,4'-OMe) = CCc1cc(OC)ccc1-c1ccc(CC(NC)C(=O)O)cc1; Leu(5,5,5,5',5',5'-F6) = N[C@@H](CC(C(F)(F)F)C(F)(F)F)C(=O)O; ξNMeNva(5-(2-F-Ph)) = CNC(CCCc1ccccc1F)C(=O)O; ξαMePhe(2-F) = CC(N)(Cc1ccccc1F)C(=O)O; NMeD = CN[C@@H](CC(=O)O)C(=O)O; aThr = C[C@H](O)[C@H](N)C(=O)O; Aib = CC(C)(N)C(=O)O
MEASURED_PROPERTY: half-life (t1/2) when incubated with liver microsomes

CCc1cc(OC)ccc1-c1ccc(CC(CNC(CCCc2ccccc2F)C(N)=O)NC[C@H](CC(=O)O)NC(=O)[C@H](CO)NC(=O)[C@@H](NC(=O)C(C)(Cc2ccccc2F)NC(=O)[C@@H](NC(=O)CNC(=O)C(CCC#N)NC(=O)C(C)(C)NC(=O)[C@@H](N)Cc2c[nH]cn2)[C@H](C)O)[C@H](C)O)cc1 (single isomer, unassigned) [compound 204] : (5) h
CCc1cc(OC)ccc1-c1ccc(CC(C(=O)N(C)C(CCCc2ccccc2F)C(N)=O)N(C)C(=O)[C@H](CC(=O)O)N(C)C(=O)[C@H](CO)NC(=O)[C@@H](NC(=O)C(C)(Cc2ccccc2F)NC(=O)[C@@H](NC(=O)CNC(=O)[C@H](CC(C(F)(F)F)C(F)(F)F)NC(=O)C(C)(C)NC(=O)[C@@H](N)Cc2c[nH]cn2)[C@H](C)O)[C@H](C)O)cc1 (stereo partly shown) [compound 221] (H-H[Aib][Leu(5,5,5,5',5',5'-F6)]G[aThr][ξαMePhe(2-F)][aThr]S[NMeD][ξNMeBip(2'-Et,4'-OMe)][ξNMeNva(5-(2-F-Ph))]-NH2) : (5) h
CCc1cc(OC)ccc1-c1ccc(CC(NC(=O)[C@H](CC(=O)O)NC(=O)[C@H](CO)NC(=O)[C@@H](NC(=O)[C@H](Cc2ccccc2)NC(=O)[C@@H](NC(=O)CNC(=O)C(CCC#N)NC(=O)C(C)(C)NC(=O)[C@@H](N)Cc2c[nH]cn2)[C@@H](C)O)[C@@H](C)O)C(=O)NC(CCCc2cc(C)cc(C)c2)C(N)=O)cc1 (single isomer, unassigned) [compound 30] : (5) h
CCc1cc(OC)ccc1-c1ccc(CC(NC(=O)[C@H](CC(=O)O)NC(=O)[C@H](CO)NC(=O)[C@@H](NC(=O)C(C)(Cc2ccccc2F)NC(=O)[C@@H](NC(=O)CNC(=O)C(CCC#N)NC(=O)C(C)(C)NC(=O)[C@H](Cc2c[nH]cn2)NC(C)=O)[C@@H](C)O)[C@@H](C)O)C(=O)NC(CCCc2ccccc2F)C(N)=O)cc1 (single isomer, unassigned) [compound 207] : (5) h

====

# ASSAY_PROTOCOL: Stability in liver microsomes
# Type: in vitro ADME
# EXPERIMENTAL_CONTEXT: 2 μM peptidomimetic, human liver microsomes, 37° C.
Non-standard residues stand in square brackets, D forms with d. Residues, ends and D or L forms follow the SMILES beside them. ξ: configuration not given here. ξBip(2'-Et-4'-OMe) = CCc1cc(OC)ccc1-c1ccc(CC(N)C(=O)O)cc1; ξNva(5-(4-Cl-2-MePh)) = Cc1cc(Cl)ccc1CCCC(N)C(=O)O
MEASURED_PROPERTY: half-life (t1/2) when incubated with liver microsomes

CCc1cc(OC)ccc1-c1ccc(CC(NC(=S)[C@H](CC(=O)O)NC(=O)[C@H](CO)NC(=O)[C@@H](NC(=O)C(C)(Cc2ccccc2F)NC(=O)[C@@H](NC(=O)CNC(=O)C(CCC#N)NC(=O)C(C)(C)NC(=O)[C@@H](N)Cc2c[nH]cn2)[C@H](C)O)[C@H](C)O)C(=S)NC(CCCc2ccccc2)C(N)=O)cc1 (single isomer, unassigned) [compound 178] : (5) h
CCc1cc(OC)ccc1-c1ccc(CC(CNC(CCCc2ccccc2)C(N)=O)NC[C@H](CC(=O)O)NC(=O)[C@H](CO)NC(=O)[C@@H](NC(=O)C(C)(Cc2ccccc2F)NC(=O)[C@@H](NC(=O)CNC(=O)C(CCC#N)NC(=O)C(C)(C)NC(=O)[C@@H](N)Cc2c[nH]cn2)[C@H](C)O)[C@H](C)O)cc1 (single isomer, unassigned) [compound 202] : (5) h
CCc1cc(OC)ccc1-c1ccc(CC(NC(=O)[C@H](CC(=O)O)NC(=O)[C@H](CO)NC(=O)[C@@H](NC(=O)[C@H](Cc2ccccc2)NC(=O)[C@@H](NC(=O)CNC(=O)[C@H](CCC(N)=O)NC(=O)[C@H](CO)NC(=O)[C@@H](N)Cc2c[nH]cn2)[C@@H](C)O)[C@@H](C)O)C(=O)NC(CCCc2ccc(Cl)cc2C)C(N)=O)cc1 (stereo partly drawn) [compound 8] (H-HSQGTFTSD[ξBip(2'-Et-4'-OMe)][ξNva(5-(4-Cl-2-MePh))]-NH2) : (5) h

====

Listing of entries alongside the reported % degradation of peptidomimetics in 24 h when incubated with DPP-IV enzyme.
# STUDY_SYSTEM: DPP IV (Homo sapiens)
# Sequence (P27487 whole entry, species assumed): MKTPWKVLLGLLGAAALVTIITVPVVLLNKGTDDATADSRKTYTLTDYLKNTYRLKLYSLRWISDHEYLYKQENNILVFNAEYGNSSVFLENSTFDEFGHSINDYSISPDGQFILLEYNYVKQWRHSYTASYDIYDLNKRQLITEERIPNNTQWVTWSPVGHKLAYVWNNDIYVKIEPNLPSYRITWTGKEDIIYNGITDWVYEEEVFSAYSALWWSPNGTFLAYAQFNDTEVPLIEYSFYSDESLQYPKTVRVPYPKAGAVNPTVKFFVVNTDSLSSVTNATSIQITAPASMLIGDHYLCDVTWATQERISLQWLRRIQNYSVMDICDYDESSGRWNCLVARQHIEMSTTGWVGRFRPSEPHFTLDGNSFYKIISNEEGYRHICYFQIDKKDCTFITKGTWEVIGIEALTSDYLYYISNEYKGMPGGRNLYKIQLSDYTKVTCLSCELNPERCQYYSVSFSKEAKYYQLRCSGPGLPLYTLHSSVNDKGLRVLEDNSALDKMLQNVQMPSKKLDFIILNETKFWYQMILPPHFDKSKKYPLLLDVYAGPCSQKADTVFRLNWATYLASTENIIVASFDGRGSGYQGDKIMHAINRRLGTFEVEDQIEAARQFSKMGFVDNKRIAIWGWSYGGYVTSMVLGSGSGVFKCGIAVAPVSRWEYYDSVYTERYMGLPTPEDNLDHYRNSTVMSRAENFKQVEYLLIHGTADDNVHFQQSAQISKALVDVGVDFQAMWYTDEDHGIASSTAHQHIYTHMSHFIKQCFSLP
# ASSAY_PROTOCOL: Stability against DPP IV enzyme
# Format: in vitro ADME
# EXPERIMENTAL_CONTEXT: 2 μM peptidomimetic, 37° C., 24 h
The answer should read as a number with its unit following.

CCc1cc(OC)ccc1-c1ccc(CC(C(=O)N(C)C(CCCc2ccccc2F)C(N)=O)N(C)C(=O)[C@H](CC(=O)O)N(C)C(=O)[C@H](CO)NC(=O)[C@@H](NC(=O)C(C)(Cc2ccccc2F)NC(=O)[C@@H](NC(=O)CNC(=O)C(CCC#N)NC(=O)C(C)(C)NC(=O)[C@@H](N)Cc2c[nH]cn2)[C@H](C)O)[C@H](C)O)cc1 (single isomer, unassigned) [compound 156] : 70%

Continue with the compound presented below.
Quick one: % degradation of peptidomimetics in 24 h when incubated with DPP-IV enzyme of CCc1cc(OC)ccc1-c1ccc(CC(CNC(CCCc2ccccc2F)C(N)=O)NC[C@H](CC(=O)O)NC(=O)[C@H](CO)NC(=O)[C@@H](NC(=O)C(C)(Cc2ccccc2F)NC(=O)[C@@H](NC(=O)CNC(=O)[C@H](CCC(N)=O)NC(=O)C(C)(C)NC(=O)[C@H](Cc2c[nH]cn2)NC(=O)OC)[C@H](C)O)[C@H](C)O)cc1 (single isomer, unassigned) [compound 200] ?
00%
